- targetOfAssay: isomerase (Mus musculus (Mouse))
- Sequence (Q91ZQ5 whole entry): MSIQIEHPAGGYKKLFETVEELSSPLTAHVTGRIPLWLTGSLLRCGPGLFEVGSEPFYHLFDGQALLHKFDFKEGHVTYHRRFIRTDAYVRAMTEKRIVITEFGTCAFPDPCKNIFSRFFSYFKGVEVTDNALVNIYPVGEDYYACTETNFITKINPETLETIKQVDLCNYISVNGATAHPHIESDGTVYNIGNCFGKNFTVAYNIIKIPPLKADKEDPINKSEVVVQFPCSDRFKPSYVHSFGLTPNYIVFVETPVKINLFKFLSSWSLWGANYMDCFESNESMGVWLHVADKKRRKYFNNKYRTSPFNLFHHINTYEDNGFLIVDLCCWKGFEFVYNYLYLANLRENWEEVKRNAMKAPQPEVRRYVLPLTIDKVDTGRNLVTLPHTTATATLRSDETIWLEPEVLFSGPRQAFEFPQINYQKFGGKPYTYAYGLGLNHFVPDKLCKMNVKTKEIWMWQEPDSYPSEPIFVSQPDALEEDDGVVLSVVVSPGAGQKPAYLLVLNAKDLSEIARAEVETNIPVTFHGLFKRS
- testName: In vivo murine isomerase assay (recovery of 11-cis-retinal after photobleaching)
- Design: species or system mice
- experimentalSetup: read-out: % Inhibition 1 mg/kg, 4 h
inhibition at 1 mg/kg reference

Illustrative cases are given below, each with its answer.
> print(dat)
                                   compound       reportedendpoint  testresult
1  C[C@H](CN)[C@@H](O)c1cccc(OCC2CCCCC2)c1 [Example 74]  inhibition at 1 mg/kg          6%
2  NCCC(O)c1cccc(OCC2CCCC2)c1 (centres unmarked) [Example 35]  inhibition at 1 mg/kg         95%
3       CCC(CC)COc1cccc(CCCN)c1 [Example 3]  inhibition at 1 mg/kg         12%
4  C[C@@H](CN)[C@H](O)c1cccc(OCC2CCCCC2)c1 [Example 73]  inhibition at 1 mg/kg         23%

Input: Requested field: inhibition at 1 mg/kg. Item: CCCC(CCC)COc1cccc(CCCN)c1 [Example 2]
Output: 1%
